Every entry's value here was drawn from ChEMBL document CHEMBL3507680.

# protocol_description: Human HepG2 cell viability assay in 384 well format
# Type: toxicity, cell-based
# Set-up: dose 125 nL, time 70.5 hour; concentration not given beside the values
# condition_label: HepG2 cells, read-out: Inhibition
value_kind: cytotoxicity at 70.5 h (%)
Record the value in %, omitting the unit from your answer.

Q: If you can, please state the reported cytotoxicity at 70.5 h value of Cc1cc(NC(=O)Cn2nc(C)c(C#N)c2N)ccc1Br .
Ans: -7.3

Q: Entry NC(=O)CCSCc1ccc(Br)c(F)c1 please
Ans: -8.58

Q: Entry COc1ccc(Cl)cc1CN1CC(n2cccn2)C1 please
Ans: -4.9

Q: Entry COc1c(C2CCCN2C(=O)c2cccc(C(N)=O)c2)c(C)nn1C (centres undefined) please
Ans: 18.9

Q: Entry COc1ccc(CNc2nc(C3CC3)no2)cc1OC please
Ans: -1.13

Q: Entry Cc1cc(-c2cnc(NC3CCCC3)nc2-c2ccoc2)on1 please
Ans: -2.38

Q: Entry CN(Cc1ccco1)C1COC2(CCN(Cc3nccs3)CC2)C1 (centres undefined) please
Ans: -21.8

Q: Entry O=C(CCN1CCNCC1)N1CCC2(CC1)c1ccccc1CC2O (centres undefined) please
Ans: -6.68

Q: Entry Cc1nnc(N2C[C@H](OCCCn3cccn3)[C@H]3OCCC[C@H]32)s1 please
Ans: -2.53

Q: Entry CC[C@H](CO)NC(=O)c1coc(COc2ccccc2F)n1 please
Ans: 2.14

Q: Entry CCN(C)c1ncnc2c1CCN(Cc1ccoc1)CC2 please
Ans: -20.5

Q: Entry CC(C)c1nc(C2CCCN2c2cnc3ccccc3n2)no1 (centres undefined) please
Ans: -6.53

Q: Entry Cc1cnn(CCNc2cnc3ccccc3n2)c1 please
Ans: -1.2

Q: Entry CCOc1ccccc1-n1c(CNC)n[nH]c1=O please
Ans: -2.54

Q: Entry CC(C)(C)Nc1c(C2CCCN(C(=O)C3CC3)C2)nc2ccccn12 (centres undefined) please
Ans: 17

Q: Entry CC(O)CN(CC(=O)NC1CCCCC1)c1ccccc1 (centres undefined) please
Ans: 8.65

Q: Entry COCCN1CCC2(CC1)CC(NCc1cncn1C)c1ccccc12 (centres undefined) please
Ans: 1.8

Q: Entry COc1coc(C(=O)Nc2nc(-c3ccccn3)cs2)cc1=O please
Ans: -7.13

Q: Entry CCc1ncc2c(n1)CN(C(=O)c1c(C)[nH]c3c1C(=O)CCC3)C2 please
Ans: 1.67

Q: Entry CCn1nc(CC(C)C)cc1C(=O)NCCCN1CCOCC1 please
Ans: -0.263

Q: Entry COc1cc(CNC(=O)CNc2cc(Cl)ccc2OC)ccn1 please
Ans: 3.6

Q: Entry COc1ccc(C(CN2CCN(C)CC2)Nc2ncccn2)cc1 (centres undefined) please
Ans: 0.96

Q: Entry O=C(CCc1cccs1)N1CCCC(N2CCNC2=O)C1 (centres undefined) please
Ans: -5.71

Q: Entry O=C(c1cnc(O)cn1)N(Cc1ccsc1)CC1CCCO1 (centres undefined) please
Ans: 25.2

Q: Entry NCc1ccc(N2CCN(c3ncccn3)CC2)c(F)c1 please
Ans: 6.72

Q: Entry c1cnc(N2CCOCC3(CCN(c4cnccn4)CC3)C2)nc1 please
Ans: -8.75

Q: Entry CCc1noc(CCC(=O)N[C@@H]2CC[C@@H](n3ccnc3C)[C@@H]2O)n1 please
Ans: -1.14

Q: Entry CC(NCc1cccn1C)c1noc(-c2ccc(Cl)cc2)n1 (centres undefined) please
Ans: -9.95

Q: Entry COC(=O)CNC(=O)C1(NC(=O)c2ccc3[nH]ncc3c2)CCCC1 please
Ans: 0.707

Q: Entry O=S(=O)(CCN1CCOC(Cn2cncn2)C1)c1ccccc1 (centres undefined) please
Ans: -17.9

Q: Entry CC(C)c1nccn1C1CCCN(C(=O)c2cccc3[nH]ncc23)C1 (centres undefined) please
Ans: -8.02

Q: Entry CN(C)C(=O)CCCn1ccc(NCc2ccc(C#N)cc2)n1 please
Ans: -2.31

Q: Entry Cn1cnc(S(=O)(=O)N2CC3(CCN(Cc4ccncc4)C3)C2)c1 please
Ans: -6.66

Q: Entry CCOCC1COCCC12CCN(C(=O)CS(C)(=O)=O)CC2 (centres undefined) please
Ans: -4.64

Q: Entry CC(C)(C)CN[C@@H]1CO[C@H](CNC(=O)Nc2ccccc2)[C@H]1O please
Ans: -1.92

Q: Entry CCN(CC(O)c1ccc(C)cc1)C(=O)NC(C)C (centres undefined) please
Ans: -1.93

Q: Entry Cc1ccc(NC(=O)N2CCC(CO)(Nc3ccccc3)CC2)cc1 please
Ans: 17.1

Q: Entry Cc1cc(C)n2c(CCCNS(=O)(=O)c3ccc(F)cc3)nnc2n1 please
Ans: -8.75

Q: Entry CCC(=O)N1CCN(C(=O)NCCOc2ccc3c(c2)CCC3)CC1 please
Ans: -8.5

Q: Entry CC(C#N)(NC(=O)Cn1cc(I)cn1)C1CC1 (centres undefined) please
Ans: 6.23

Q: Entry COc1c(C2CCCN2C(=O)c2ccc(N(C)C)nn2)c(C)nn1C (centres undefined) please
Ans: -8.95

Q: Entry CN(CCNS(C)(=O)=O)C(=O)c1ccc(Cl)c(Cl)c1 please
Ans: -6.01

Q: Entry O=C(CCn1cncn1)NCC1CCCC1 please
Ans: -6.57

Q: Entry CC(C)(C)c1nnc(CN(Cc2cccs2)CC2CCCO2)o1 (centres undefined) please
Ans: -1.38

Q: Entry Cc1nc2c(c(=O)[nH]1)CCN(C(=O)c1[nH]nc3c1CC(C)CC3)C2 (centres undefined) please
Ans: 2.4

Q: Entry Cc1c(C2c3nc[nH]c3CCN2CCOCc2ccccc2)cnn1C (centres undefined) please
Ans: -10.4

Q: Entry CCSCCC(=O)NCCn1nc2ccccn2c1=O please
Ans: -7.12

Q: Entry CCOCCN1CCN(CCCc2nnnn2-c2ccccc2)CC1 please
Ans: -5.57

Q: Entry NC(=O)NC(=O)CCSCc1coc(-c2cccc(Cl)c2)n1 please
Ans: -17.3
